Listed below: melting point values for each entry.

- structure-as-smiles: "CCN1C(=O)CCc2cc(CNS(=O)(=O)c3ccccc3Br)ccc21"
  melting point: "206 to 207 °C"
- structure-as-smiles: "CCCN1C(=O)CCc2cc(CNS(=O)(=O)/C=C/c3ccc(Br)cc3)ccc21"
  melting point: "150 to 152 °C"
- structure-as-smiles: "CCN1C(=O)CCc2cc(CNS(=O)(=O)c3ccccc3F)ccc21"
  melting point: "155 to 163 °C"
- structure-as-smiles: "CCN1C(=O)CCc2cc(CNS(=O)(=O)/C=C/c3ccc(Br)cc3)ccc21"
  melting point: "119 to 124 °C"
- structure-as-smiles: "CCCN1C(=O)CCc2cc(CNS(=O)(=O)c3ccc(C)s3)ccc21"
  melting point: "151 to 154 °C"
- structure-as-smiles: "CCN1C(=O)CCc2cc(CNS(=O)(=O)c3ccc(C(F)(F)F)cc3)ccc21"
  melting point: "180 to 181 °C"
- structure-as-smiles: "CCN1C(=O)CCc2cc(CNS(=O)(=O)/C=C/c3cccc(Br)c3)ccc21"
  melting point: "144 to 147 °C"

# context switch: different compound, same melting point
Task: Could you share which melting point value was measured for CCCN1C(=O)CCc2cc(CNS(=O)(=O)c3ccsc3)ccc21 ?
Result: 150 to 154 °C
